- system_under_test: recombinant human PAI-1 (Homo sapiens, UniProt P05121)
- Sequence (P05121 24-402): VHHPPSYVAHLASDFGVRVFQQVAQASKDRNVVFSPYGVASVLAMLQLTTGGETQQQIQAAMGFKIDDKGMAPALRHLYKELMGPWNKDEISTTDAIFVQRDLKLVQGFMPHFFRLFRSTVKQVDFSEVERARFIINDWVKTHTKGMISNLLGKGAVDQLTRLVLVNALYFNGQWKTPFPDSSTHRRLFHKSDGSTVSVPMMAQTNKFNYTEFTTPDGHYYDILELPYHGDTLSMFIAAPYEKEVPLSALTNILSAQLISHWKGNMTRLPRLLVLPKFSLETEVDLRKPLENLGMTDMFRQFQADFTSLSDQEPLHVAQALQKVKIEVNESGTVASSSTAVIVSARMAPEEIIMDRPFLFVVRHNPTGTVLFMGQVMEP
- experimental_details: biochemical
- particulars: read-out: Inhibition Rate of PAI-1 Activity (%)
result_type: inhibition at 10 µM (%)
Dear colleague, please return just the value in %, with no unit written.

inhibition at 10 µM measured on CC(C)(C)c1ccc(CN(C(=O)C(=O)O)c2c(Cl)cc(-c3ccc(OC(F)(F)F)cc3)cc2Cl)cc1 [Compound 173] = 95

inhibition at 10 µM measured on CCCCOc1ccc(N(CCCCc2ccccc2)C(=O)C(=O)O)cc1-c1ccc(OC(F)(F)F)cc1 [Compound 227] = 90

inhibition at 10 µM measured on CC(C)Oc1ccc(N(Cc2ccc(C(C)(C)C)cc2)C(=O)C(=O)O)c(-c2ccc(OC(F)(F)F)cc2)c1 [Compound 209] = 98

inhibition at 10 µM measured on CC(C)(C)c1ccc(Oc2cc(-c3ccc(OC(F)(F)F)cc3)ccc2CCC(=O)O)cc1 [Compound 80] = 82

----------
- system_under_test: recombinant human PAI-1 (Homo sapiens, UniProt P05121)
- experimental_details: Test Example 2: Human PAI-1 Inhibitory Activity (pH 7.4 HEPES buffer, 10 minutes incubation with two-chain tPA)
- Assay type: biochemical
- Set-up: purchased Molecular Innovations, Inc
- particulars: read-out: Inhibition Rate of PAI-1 Activity (%)
# reported inhibition at 3 µM; entries follow

[[record]]
compound = "CCCCCOc1ccc(-c2cccc(C)c2)cc1N(CCCCc1ccccc1)C(=O)C(=O)O [Compound 379]"
result_type = "inhibition at 3 µM"
observed_measurement = "92%"

[[record]]
compound = "O=C(O)C(=O)N(CCCCc1ccccc1)c1cc(-c2ccc(OC(F)(F)F)cc2)ccc1OCCCCC(F)(F)F [Compound 381]"
result_type = "inhibition at 3 µM"
observed_measurement = "> 99%"


recombinant human PAI-1 (Homo sapiens, UniProt P05121) data for CCCCCOc1ccc(-c2ccc(OC(F)(F)F)cc2)cc1N(CCCCc1ccc(Cl)cc1)C(=O)C(=O)O [Compound 384] ; its inhibition at 3 µM: 95%

recombinant human PAI-1 (Homo sapiens, UniProt P05121) data for CC(C)(C)c1ccc(Oc2cccc(-c3ccc(OC(F)(F)F)cc3)c2OCC(=O)O)cc1 [Compound 113] ; its inhibition at 3 µM: 73%

recombinant human PAI-1 (Homo sapiens, UniProt P05121) data for CC(C)c1ccc(-c2ccc(CCC(=O)O)c(Oc3ccc(C(C)(C)C)cc3)c2)cc1 [Compound 519] ; its inhibition at 3 µM: > 99%

recombinant human PAI-1 (Homo sapiens, UniProt P05121) data for CCCCCN(C(=O)C(=O)O)c1cc(-c2ccc(OC(F)(F)F)cc2)ccc1OCCCOc1ccccc1 [Compound 657] ; its inhibition at 3 µM: > 99%

recombinant human PAI-1 (Homo sapiens, UniProt P05121) data for CC(C)(C)c1ccc(-c2ccc(OCC(=O)O)c(Oc3cccc(C(C)(C)C)c3)c2)cc1 [Compound 465] ; its inhibition at 3 µM: 98%

----------
- system_under_test: recombinant human PAI-1 (Homo sapiens)
- experimental_details: Test Example 2: Human PAI-1 Inhibitory Activity (pH 7.4 HEPES buffer, 10 minutes incubation with two-chain tPA)
- Type: biochemical
- Design: purchased Molecular Innovations, Inc
- particulars: read-out: Inhibition Rate of PAI-1 Activity (%)
result_type: inhibition at 0.1 µM (%)
Dear colleague, please return just the value in %, with no unit written.

Known inhibition at 0.1 µM results, listed for orientation:
[[record]]
compound = "CC(C)(C)c1ccc(Oc2cc(-c3cccc(OC(F)(F)F)c3)ccc2/C=C/C(=O)O)cc1"
observed_measurement = 13

[[record]]
compound = "CCCCC(Oc1cc(-c2cccc(C(F)(F)F)c2)ccc1Oc1ccc(C(C)(C)C)cc1)C(=O)O (stereo not shown)"
observed_measurement = 8

[[record]]
compound = "CCCCC(Oc1ccc(-c2ccc(OC(F)(F)F)cc2)cc1OCc1ccc(C(C)(C)C)cc1)C(=O)O (stereo not shown)"
observed_measurement = 11

[[record]]
compound = "CCCCc1ccc(Oc2cc(-c3ccc(OC(F)(F)F)cc3)ccc2CCC(=O)O)cc1"
observed_measurement = 18

[[record]]
compound = "CC(C)(C)c1ccc(COc2ccc(Oc3ccc(OC(F)(F)F)cc3)cc2CCC(=O)O)cc1"
observed_measurement = 6

[[record]]
compound = "CC(C)(C)c1ccc(Oc2cc(-c3ccc(OC(F)(F)F)cc3)ccc2N(CCCCc2ccccc2)C(=O)C(=O)O)cc1"
observed_measurement = 14


Here is the next item to consider.
inhibition at 0.1 µM measured on "CC(C)(C)c1cccc(Oc2ccc(-c3ccc(OC(F)(F)F)cc3)cc2OCC(=O)O)c1" = 12

----------
- system_under_test: recombinant human PAI-1 (Homo sapiens, UniProt P05121)
- experimental_details: Test Example 4: Human PAI-1 Inhibitory Activity (amount of PAI-1 bound to plate-coated one-chain tPA, ELISA)
- Type: biochemical
- Design: purchased Molecular Innovations, Inc
- particulars: human PAI-1 bound to tPA; Compound Concentration 3µM; read-out: Inhibition Rate of PAI-1 Activity (%)
Please enter T where inhibition at 3 µM is greater than or equal to 40%, and F where it is lower.

[[record]]
compound = "CCCCOc1ccc(-c2ccc(OC(F)(F)F)cc2)cc1N(Cc1ccc(C(C)(C)C)cc1)C(=O)C(=O)O [Compound 189]"
system_under_test = "recombinant human PAI-1 (Homo sapiens, UniProt P05121)"
qualitative_label = "T"


Please check the record CCC(CC)Oc1ccc(-c2ccc(OC(F)(F)F)cc2)cc1N(Cc1ccc(C(C)(C)C)cc1)C(=O)C(=O)O [Compound 199] and state if its inhibition at 3 µM is at or above 40%.
T

Please check the record Cc1ccc(N(Cc2ccc(C(C)(C)C)cc2)C(=O)C(=O)O)cc1-c1ccc(OC(F)(F)F)cc1 [Compound 176] and state if its inhibition at 3 µM is at or above 40%.
F

Please check the record CCCOc1ccc(N(Cc2ccc(C(C)(C)C)cc2)C(=O)C(=O)O)c(-c2ccc(OC(F)(F)F)cc2)c1 [Compound 198] and state if its inhibition at 3 µM is at or above 40%.
F

Please check the record CC(C)(C)c1ccc(CN(C(=O)C(=O)O)c2ccc(-c3ccc(OC(F)(F)F)cc3)cc2)cc1 [Compound 129] and state if its inhibition at 3 µM is at or above 40%.
F

----------
# reported inhibition at 0.3 µM; entries follow
- system_under_test: recombinant human PAI-1 (Homo sapiens)
- experimental_details: Test Example 2: Human PAI-1 Inhibitory Activity (pH 7.4 HEPES buffer, 10 minutes incubation with two-chain tPA)
- Type: biochemical
- Design: purchased Molecular Innovations, Inc
- particulars: read-out: Inhibition Rate of PAI-1 Activity (%)
Dear colleague, please return just the value in %, with no unit written.

Known inhibition at 0.3 µM results, listed for orientation:
[[record]]
molecule = "CCCCCN(C(=O)C(=O)O)c1cc(-c2ccc(OC(F)(F)F)cc2)ccc1OCCCOc1ccccc1"
unit_of_measurement = "%"
observed_measurement = 20

[[record]]
molecule = "CC(C)(C)c1ccc(C(c2ccccc2)N(C(=O)C(=O)O)c2ccc(-c3ccc(OC(F)(F)F)cc3)cc2)cc1 (stereo not shown)"
unit_of_measurement = "%"
observed_measurement = 3

[[record]]
molecule = "CCCCC(Oc1cc(-c2ccc(OC(F)(F)F)cc2)ccc1Oc1ccccc1)C(=O)O (stereo not shown)"
unit_of_measurement = "%"
observed_measurement = 1


Here is the next item to consider.
inhibition at 0.3 µM measured on CCCCC(Oc1cc(Oc2ccc(C(C)(C)C)cc2)cc(-c2ccc(OC(F)(F)F)cc2)c1)C(=O)O (stereo not shown) = 29

----------
- system_under_test: recombinant rat PAI-1 (Rattus norvegicus, UniProt P20961)
- Sequence (P20961 24-402): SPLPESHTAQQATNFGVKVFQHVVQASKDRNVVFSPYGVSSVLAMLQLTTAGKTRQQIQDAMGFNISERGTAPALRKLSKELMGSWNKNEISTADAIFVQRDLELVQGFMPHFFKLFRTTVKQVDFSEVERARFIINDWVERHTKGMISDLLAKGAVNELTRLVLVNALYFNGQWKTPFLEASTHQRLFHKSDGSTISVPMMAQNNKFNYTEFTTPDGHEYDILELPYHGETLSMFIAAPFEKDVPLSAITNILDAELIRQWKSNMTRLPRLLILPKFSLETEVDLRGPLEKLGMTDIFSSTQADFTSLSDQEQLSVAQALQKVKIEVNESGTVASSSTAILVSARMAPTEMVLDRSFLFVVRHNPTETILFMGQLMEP
- experimental_details: biochemical
- particulars: read-out: Inhibition Rate of PAI-1 Activity (%)
result_type: inhibition at 10 µM (%)
Dear colleague, please return just the value in %, with no unit written.

Known inhibition at 10 µM results, listed for orientation:
[[record]]
molecule = "CC(C)(C)c1ccc(CN(C(=O)C(=O)O)c2cccc(Oc3ccc(OC(F)(F)F)cc3)c2)cc1 [Compound 172]"
observed_measurement = 97

[[record]]
molecule = "CC(C)(C)c1ccc(CN(C(=O)C(=O)O)c2ccc(Oc3ccc(OC(F)(F)F)cc3)cc2C(F)(F)F)cc1 [Compound 174]"
observed_measurement = 94

[[record]]
molecule = "CCCCc1ccc(CN(C(=O)C(=O)O)c2ccc(-c3ccc(C(C)(C)C)cc3)cc2)cc1 [Compound 206]"
observed_measurement = 88

[[record]]
molecule = "CC(C)Oc1ccc(N(Cc2ccc(C(C)(C)C)cc2)C(=O)C(=O)O)cc1-c1ccc(OC(F)(F)F)cc1 [Compound 211]"
observed_measurement = 87


recombinant rat PAI-1 (Rattus norvegicus, UniProt P20961) data for CCC(CC)Oc1ccc(N(Cc2ccc(C(C)(C)C)cc2)C(=O)C(=O)O)cc1-c1ccc(OC(F)(F)F)cc1 [Compound 197] ; its inhibition at 10 µM: 75

recombinant rat PAI-1 (Rattus norvegicus, UniProt P20961) data for CC(C)(C)c1ccc(Oc2cc(Oc3ccc(OC(F)(F)F)cc3)ccc2CCC(=O)O)cc1 [Compound 90] ; its inhibition at 10 µM: 90

recombinant rat PAI-1 (Rattus norvegicus, UniProt P20961) data for CC(C)(C)c1ccc(COc2ccc(-c3ccc(OC(F)(F)F)cc3)cc2CC(=O)O)cc1 [Compound 9] ; its inhibition at 10 µM: 96
